- METHOD SUMMARY: Pharmacokinetic analysis of crizotinib glucosides after oral gavage, plasma LC/MS/MS
- Assay type: in vivo, male C57 mice
- STUDY CONDITIONS: mouse, plasma; oral GA95 91.6 mg/kg, male C57 mice, analyte Glycolcrizotinib
ENDPOINT NAME: Cmax (ng/mL)
Value expressed in ng/mL; do not type the unit.

Input: State its Cmax: C[C@@H](Oc1cc(-c2cnn(C3CCN(C(=O)O[C@@H]4O[C@H](CO)[C@@H](O)[C@H](O)[C@H]4O)CC3)c2)cnc1N)c1c(Cl)ccc(F)c1Cl
Output: 33.6

---

- METHOD SUMMARY: Pharmacokinetic analysis of crizotinib glucosides after oral gavage, plasma LC/MS/MS
- Format: in vivo, male C57 mice
- STUDY CONDITIONS: mouse, plasma; oral GA95 91.6 mg/kg, male C57 mice, analyte Glycolcrizotinib
ENDPOINT NAME: AUC(0-inf) (ng·h/mL)
Value expressed in ng·h/mL; do not type the unit.

Input: State its AUC(0-inf): C[C@@H](Oc1cc(-c2cnn(C3CCN(C(=O)O[C@@H]4O[C@H](CO)[C@@H](O)[C@H](O)[C@H]4O)CC3)c2)cnc1N)c1c(Cl)ccc(F)c1Cl
Output: 42.6
